The measured values listed here are drawn from paper PMC12416549.

Reported apparent Kd (screen) values follow for various binders
Biological target: T1, TNFR1 (Homo sapiens, UniProt P19438)
T1 chain: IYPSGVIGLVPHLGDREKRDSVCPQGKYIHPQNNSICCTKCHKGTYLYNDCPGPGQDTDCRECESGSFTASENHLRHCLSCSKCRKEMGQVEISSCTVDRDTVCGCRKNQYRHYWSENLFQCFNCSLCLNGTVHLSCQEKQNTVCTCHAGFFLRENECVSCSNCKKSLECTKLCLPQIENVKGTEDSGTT
Test: yeast display SC50
Lab book: enter the figure in nM, no units written.

# binder, assay metric, measured value
records = [
    ("R13H (designed binder) MTLQELLREEALHRAEAEAFRYALELLAEKFPEQKEYLLDLAEEIESQIRSLSGVDVEDVRKFLDKEWAWVKELLAEHPAELAEVEAARAARLAELRAEVEAKVAA", "apparent Kd (screen)", 0.405),
]

Attention now shifts to the item below.
# input binder: E99N (designed binder) MTLQELLREEALRRAEAEAFRYALELLAEKFPEQKEYLLDLAEEIESQIRSLSGVDVEDVRKFLDKEWAWVKELLAEHPAELAEVEAARAARLAELRANVEAKVAA ; wanted: its apparent Kd (screen)
0.718
